# System: OCI-LY10
# Assay: CTG Cell Viability Assay - OCI-LY10
# Assay type: cell-based, human
# Condition Context: OCI-LY10, 4 days; read-out: CTG Cell Viability Assay - OCI-LY10: Average external-IC50
# Experimental: Compound-mediated viability effect on OCI-LY10 or TMD8 was quantitatively determined using the CellTiter-Glo® Luminescent Cell Viability Assay kit from Promega (Catalog number G7570) following manufacturer's recommended procedures. […] The data was then analyzed by software Prism 7.0 from GraphPad and the dose response curves were fit using a three-parameter logistic equation to calculate IC50.
pIC50: −log10 of the molar value.
Assay Endpoint: pIC50

Molecule	Target System	Test Result
COc1cc(C(=O)NCCCCCCN(C)C(=O)[C@H]2CC[C@H](n3cc(NC(=O)c4coc(-c5ccnc(NCC6CC6)c5)n4)c(C(F)F)n3)CC2)ccc1NC(=O)[C@@H]1N[C@@H](CC(C)(C)C)[C@](C#N)(c2ccc(Cl)cc2F)[C@H]1c1cccc(Cl)c1F	OCI-LY10	< 6.00

Continue with the molecule presented below.
Exam item: Enter reported pIC50 observed with OCI-LY10 for CC1C(=O)N(C2CCC(=O)NC2=O)c2cccc(C3CCN(CCCN(C)C[C@H]4CC[C@H](n5cc(NC(=O)c6coc(-c7ccnc(NCC8CC8)c7)n6)c(C(F)F)n5)CC4)CC3)c21 (some centres unmarked)
Marked response: 6.30 to 7.00
